protocolText: Volume of distribution in rat
Format: ADME, organism-based
reportedConditions: in vivo, read-out: Vss
assayMetric: Vd (L/kg)

Sample answers from the record:
> print(dat)
                                 chemsmiles  assaymetric  valueunits  measuredresult
1  Cc1nc[nH]c1CC(=O)N[C@@H](CC(C)C)C(=O)N[C@H](C#N)COCc1ccccc1           Vd        L/kg             4.3
2  CC(C)C[C@H](NC(=O)CN1CCN(c2ccncc2)CC1)C(=O)N[C@H](C#N)COCc1ccccc1           Vd        L/kg              18

[I] CC(C)C[C@H](NC(=O)OCc1ccccc1)C(=O)N[C@H](C#N)COCc1ccccc1
[II] CC(C)C[C@H](NC(=O)C(C)(C)Oc1ccc(Cl)cc1)C(=O)N[C@H](C#N)COCc1ccccc1
[III] CC(C)C[C@H](NC(=O)c1cc2ccccc2n1C)C(=O)N[C@H](C#N)COCc1ccccc1
Please rank these compounds by Vd in descending order. Answer by writing out the labels in the requested order. II, III, I
(II: 13.6 L/kg, III: 7.7 L/kg, I: 4.6 L/kg)

###

targetOrSystem: Cathepsin K (Homo sapiens, UniProt P43235)
protocolText: Inhibition of recombinant human cathepsin K
pIC50: −log10 of the molar value.
assayMetric: pIC50

A selection of reference data follows.
> print(dat)
                                 chemsmiles                            targetorsystem  measuredresult
1  CC(C)C[C@H](NC(=O)OCc1ccccc1)C(=O)N[C@H](C#N)Cc1ccc(C(F)(F)F)cc1  Cathepsin K (Homo sapiens, UniProt P43235)            7.37
2  CC(C)C[C@H](NC(=O)CN1CCN(c2ccncc2)CC1)C(=O)N[C@H](C#N)COCc1ccccc1  Cathepsin K (Homo sapiens, UniProt P43235)            8.05

[1] Cc1cccc(C[C@@H](C#N)NC(=O)[C@H](CC(C)C)NC(=O)OCc2ccccc2)c1
[2] CC(C)C[C@H](NC(=O)OCc1ccccc1)C(=O)N[C@H](C#N)COC(C)(C)C
[3] CC(C)C[C@H](NC(=O)OCc1ccccc1)C(=O)N[C@H](C#N)COCc1ccccc1
Form: Sort by [pIC50] Order [ ascending ] Form field (ranking): labels in requested order. 2, 1, 3

###

targetOrSystem: Cathepsin K (Homo sapiens)
Sequence (P43235 whole entry): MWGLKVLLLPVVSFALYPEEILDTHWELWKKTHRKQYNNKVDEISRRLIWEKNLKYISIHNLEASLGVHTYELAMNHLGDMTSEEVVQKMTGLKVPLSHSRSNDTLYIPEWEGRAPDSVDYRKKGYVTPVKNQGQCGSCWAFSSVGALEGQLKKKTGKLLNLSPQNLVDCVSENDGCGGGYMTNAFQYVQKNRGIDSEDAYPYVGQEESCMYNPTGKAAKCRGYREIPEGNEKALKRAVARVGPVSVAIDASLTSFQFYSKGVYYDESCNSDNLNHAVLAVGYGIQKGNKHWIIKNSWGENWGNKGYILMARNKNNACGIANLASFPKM
protocolText: Inhibition of recombinant human cathepsin K
pIC50: −log10 of the molar value.
assayMetric: pIC50

> print(dat)
                                 chemsmiles  assaymetric  measuredresult
1  COc1ccc(C[C@@H](C#N)NC(=O)[C@H](CC(C)C)NC(=O)OCc2ccccc2)cc1        pIC50            7.20

[a] CC(C)C[C@H](NC(=O)C(C)(C)Nc1ccc(Cl)cc1)C(=O)N[C@H](C#N)COCc1ccccc1
[b] CC(C)C[C@H](NC(=O)CN1CCC(c2ccccc2)CC1)C(=O)N[C@H](C#N)COCc1ccccc1
[c] Cc1ccc(C[C@@H](C#N)NC(=O)[C@H](CC(C)C)NC(=O)OCc2ccccc2)cc1
[d] Cc1nc[nH]c1CC(=O)N[C@@H](CC(C)C)C(=O)N[C@H](C#N)COCc1ccccc1
Sort by pIC50, descending. Would you mind listing the labels in the order requested? d, c, b, a
(d: 7.62, c: 7.32, b: 7.08, a: 6.37)

###

protocolText: Oral bioavailability in rat
Format: ADME, organism-based
reportedConditions: in vivo
assayMetric: bioavailability (%)

> print(dat)
                                 chemsmiles  valueunits  measuredresult
1  CC(C)C[C@H](NC(=O)OCc1ccccc1)C(=O)N[C@H](C#N)COCc1ccccc1           %            26.4
2  Cc1nc[nH]c1CC(=O)N[C@@H](CC(C)C)C(=O)N[C@H](C#N)COCc1ccccc1           %             4.6

[I] CC(C)C[C@H](NC(=O)c1cc2ccccc2n1C)C(=O)N[C@H](C#N)COCc1ccccc1
[II] CC(C)C[C@H](NC(=O)C(C)(C)Oc1ccc(Cl)cc1)C(=O)N[C@H](C#N)COCc1ccccc1
[III] CC(C)C[C@H](NC(=O)CN1CCN(c2ccncc2)CC1)C(=O)N[C@H](C#N)COCc1ccccc1
Descending sort on bioavailability required. Please express your ranking as an ordered list of the labels. I, II, III

###

targetOrSystem: Cathepsin S (Homo sapiens)
Sequence (P25774 whole entry): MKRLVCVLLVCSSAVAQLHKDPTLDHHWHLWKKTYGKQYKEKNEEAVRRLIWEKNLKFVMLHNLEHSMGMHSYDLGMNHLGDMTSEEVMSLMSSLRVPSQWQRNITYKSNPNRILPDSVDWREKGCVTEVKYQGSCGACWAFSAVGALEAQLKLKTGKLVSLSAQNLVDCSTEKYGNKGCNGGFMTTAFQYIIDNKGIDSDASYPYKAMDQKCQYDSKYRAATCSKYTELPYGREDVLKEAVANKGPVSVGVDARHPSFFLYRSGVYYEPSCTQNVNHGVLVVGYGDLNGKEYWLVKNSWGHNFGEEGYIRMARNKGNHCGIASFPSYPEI
protocolText: Inhibition of recombinant human cathepsin S
pIC50: −log10 of the molar value.
assayMetric: pIC50

Guide cases for pIC50, answers given:
> print(dat)
                                 chemsmiles  assaymetric  measuredresult
1  COc1ccc(C[C@@H](C#N)NC(=O)[C@H](CC(C)C)NC(=O)OCc2ccccc2)cc1        pIC50            6.15
2  CC(C)C[C@H](NC(=O)OCc1ccccc1)C(=O)N[C@H](C#N)COC(C)(C)C        pIC50            6.05

[1] CC(C)C[C@H](NC(=O)c1cc2ccccc2n1C)C(=O)N[C@H](C#N)COCc1ccccc1
[2] Cc1nccn1CC(=O)N[C@@H](CC(C)C)C(=O)N[C@H](C#N)COCc1ccccc1
Identify the entry with the larger pIC50. Options: 1 and 2 Field: selected label. Fill in the label of the entry you choose. 1
(1: 7.33, 2: 6.62)

[a] CC(C)C[C@H](NC(=O)c1cc2ccccc2[nH]1)C(=O)N[C@H](C#N)COCc1ccccc1
[b] CC(C)C[C@H](NC(=O)CN1CCN(c2ccncc2)CC1)C(=O)N[C@H](C#N)COCc1ccccc1
[c] CC(C)C[C@H](NC(=O)OCc1ccccc1)C(=O)N[C@H](C#N)COCc1ccccc1
[d] CC(C)C[C@H](NC(=O)C(C)(C)Oc1ccc(Cl)cc1)C(=O)N[C@H](C#N)COCc1ccccc1
[e] Cc1cccc(C[C@@H](C#N)NC(=O)[C@H](CC(C)C)NC(=O)OCc2ccccc2)c1
Reorder the items by pIC50, least to greatest. Response format: the labels, sorted as the prompt asks. e, c, b, d, a
(e: 5.64, c: 6.01, b: 6.74, d: 7.28, a: 7.54)

[a] CC(C)C[C@H](NC(=O)C(C)(C)Nc1ccc(Cl)cc1)C(=O)N[C@H](C#N)COCc1ccccc1
[b] CC(C)C[C@H](NC(=O)CN1CCC(c2ccccc2)CC1)C(=O)N[C@H](C#N)COCc1ccccc1
Could you check which of a and b has a smaller value for pIC50? # respond with the chosen item's label b

###

targetOrSystem: Procathepsin L (Homo sapiens)
Sequence (P07711 whole entry): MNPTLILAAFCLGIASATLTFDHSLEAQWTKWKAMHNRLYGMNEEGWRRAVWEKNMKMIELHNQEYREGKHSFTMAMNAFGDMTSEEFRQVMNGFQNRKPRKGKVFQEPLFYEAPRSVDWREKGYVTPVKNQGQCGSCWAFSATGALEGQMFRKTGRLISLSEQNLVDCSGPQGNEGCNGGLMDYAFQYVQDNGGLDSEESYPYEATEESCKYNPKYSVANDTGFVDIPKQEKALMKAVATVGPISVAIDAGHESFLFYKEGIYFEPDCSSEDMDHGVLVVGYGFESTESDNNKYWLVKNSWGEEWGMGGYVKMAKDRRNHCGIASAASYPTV
protocolText: Inhibition of recombinant human cathepsin L
pIC50: −log10 of the molar value.
assayMetric: pIC50

> print(dat)
                                 chemsmiles                 targetorsystem  measuredresult
1  CC(C)C[C@H](NC(=O)OCc1ccccc1)C(=O)N[C@H](C#N)Cc1ccc(OC(C)(C)C)cc1  Procathepsin L (Homo sapiens)            5.85
2  CC(C)C[C@H](NC(=O)C(C)(C)Nc1ccc(Cl)cc1)C(=O)N[C@H](C#N)COCc1ccccc1  Procathepsin L (Homo sapiens)            6.72
3  CC(C)C[C@H](NC(=O)CN1CCC(c2ccccc2)CC1)C(=O)N[C@H](C#N)COCc1ccccc1  Procathepsin L (Homo sapiens)            5.92
4  CC(C)C[C@H](NC(=O)c1cc2ccccc2n1C)C(=O)N[C@H](C#N)COCc1ccccc1  Procathepsin L (Homo sapiens)            7.08
5  CC(C)C[C@H](NC(=O)OCc1ccccc1)C(=O)N[C@H](C#N)Cc1ccc(C(F)(F)F)cc1  Procathepsin L (Homo sapiens)            5.10
6  CC(C)C[C@H](NC(=O)CN1CCN(c2ccncc2)CC1)C(=O)N[C@H](C#N)COCc1ccccc1  Procathepsin L (Homo sapiens)            6.48

[P] Cc1nccn1CC(=O)N[C@@H](CC(C)C)C(=O)N[C@H](C#N)COCc1ccccc1
[Q] CC(C)C[C@H](NC(=O)OCc1ccccc1)C(=O)N[C@H](C#N)COCc1ccccc1
[R] CC(C)C[C@H](NC(=O)c1cc2ccccc2[nH]1)C(=O)N[C@H](C#N)COCc1ccccc1
Rank by pIC50 (largest to smallest). Return value: ordered labels per request. R, P, Q
